molecular target: ORF2p core (Homo sapiens, UniProt O00370); construct: His6-MBP-3C-ORF2p (238-1061, ORFeus-Hs) in pET41; His6-MBP (3C protease site) (N, cleaved yes); made in house; host or cells: E. coli; test: Homogeneous time-resolved fluorescence (HTRF) ORF2p RT assay; format: biochemical; conditions: HTRF; NRTI NTPs

# smilesData, measuredOn, IC50
measured = [
    ("Cc1cn([C@H]2C=C[C@@H](COP(=O)(O)OP(=O)(O)OP(=O)(O)O)O2)c(=O)[nH]c1=O", "ORF2p core (Homo sapiens, UniProt O00370)", "9 nM"),
    ("Cc1cn([C@H]2C=C[C@@H](CO)O2)c(=O)[nH]c1=O", "ORF2p core (Homo sapiens, UniProt O00370)", "< 10 nM"),
    ("Cc1cn([C@H]2CC[C@@H](CO)O2)c(=O)[nH]c1=O", "ORF2p core (Homo sapiens, UniProt O00370)", "< 10 nM"),
    ("Cc1cn([C@H]2C[C@H](N=[N+]=[N-])[C@@H](CO)O2)c(=O)[nH]c1=O", "ORF2p core (Homo sapiens, UniProt O00370)", "200 to 750 nM"),
    ("Nc1ccn([C@@H]2CS[C@H](CO)O2)c(=O)n1", "ORF2p core (Homo sapiens, UniProt O00370)", "200 to 750 nM"),
]
